Catalogue of growth values
test system: SN12C renal; assay: NCI-60 one-dose screen, 48 h (100 = growth as untreated, 0 = no growth, -100 = all killed); conditions: 10 µM unless noted
Compounds without any hit were thinned out: in the full panel of roughly 83,000, 20% have a hit.
Could you give me the number in %? Just the number is fine.

Solved cases (2 shown):
CC1CN(c2oc(-c3ccccc3)nc2C#N)CC(C)O1 (configuration not stated) :: 97.9
COc1cc(/C=C/c2cc(/C=C/c3ccc(O)c(OC)c3)n(C(N)=O)n2)ccc1O :: -5.22

Record COc1ccc(C2=CC(c3cc(OC)c(OC)c(OC)c3)NC(=O)N2)cc1OC (configuration not stated) . Reported growth: 23.7

Quick note, growth for C=CCSc1n[nH]c(-c2cccs2)n1 landed at 97.2

Item: COc1ccc(-n2c(-c3ccccc3)c(-c3ccccc3)c3c(SCC(=O)N/N=C/c4ccc(Cl)cc4)ncnc32)cc1 | growth: 99

Notebook: COc1ccc(-c2nc(/C=N/Nc3cc(C)nc4ccc(Br)cc34)c(C)o2)cc1 , growth read as -89.2

For this molecule ( CC(=O)Nc1nc(N)nc(NC(C)=O)c1N=O ), measured growth is 106
